Numbers sourced from the supplement of paper PMC10567573.

B1: DUSP5 (parent)
chain: YSEYPECCVDVKPISQEKIESERA

variants of: B1; test: protein stability index of a GFP-peptide fusion (GPS, HEK-293T) (PSI 1-6); higher = more stable; details: c terminus: a fixed tail appended;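 also: lentivirally expressed fusions sorted by FACS into six bins by GFP to DsRed ratio, PSI derived from sequencing read proportions per bin multiplied by bin number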
Entry flag: class 1 if protein stability index reaches 4; class 0 if it does not.

Please review the entries below; each comes with its answer.
1. YSEYPECCVDVKPISDEKIESERA [Q16D] : class 1
2. YSEYTECCVDVKPISQEKIESERA [P5T] : class 1
3. YSEYPECCLDVKPISQEKIESERA [V9L] : class 1
4. YSEYPTCCVDVKPISQEKIESERA [E6T] : class 0
5. YSEYPECHVDVKPISQEKIESERA [C8H] : class 1
6. YSEYPEHCVDVKPISQEKIESERA [C7H] : class 1

Exam item: decide whether the reported protein stability index for YSEYPECCIDVKPISQEKIESERA [V9I] is at least 4.
class 1

Entry YSEYWECCVDVKPISQEKIESERA [P5W] : is its protein stability index no less than 4?
class 0

Is the recorded value of protein stability index equal to or greater than 4 for this variant? MSEYPECCVDVKPISQEKIESERA [Y1M]
class 1

Form field: protein stability index at least 4? Entry: YVEYPECCVDVKPISQEKIESERA [S2V]
class 0

Is the recorded value of protein stability index equal to or greater than 4 for this variant? YSEYKECCVDVKPISQEKIESERA [P5K]
class 1
